Every entry's value here was drawn from PubChem BioAssay (NCATS).

- protocol_notes: qHTS of pediatric cancer cell lines to identify multiple opportunities for drug repurposing: Confirmatory screen for DAOY cells (AID 1347114); note: nearly all actives have a fitted effect of over 65% in size; note: potency is the fitted concentration of half-maximal effect
- reported_conditions: DAOY medulloblastoma cells viability, cytotoxicity qHTS; series mostly up to 45.9 µM
- Description: Drug repurposing or repositioning has been offered as a strategy for drug development in oncology programs. […] [1] Shen, M et al. Quantitative high-throughput phenotypic screening of pediatric cancer cell lines identifies multiple opportunities for drug repurposing. […] Cells were assayed in growth media at a density of 500-1,000 cells/well. […] After a 15 min incubation at room temperature, samples were analyzed for luminescence intensity using a ViewLux High-throughput CCD imager equipped with clear filters.
Results filed as inconclusive are left out. Active and inactive are the calls of the source. Calls come from the whole dose curve; as a rule, active = well fitted cell-killing curve with a large enough effect; inconclusive = small, poorly fitted or top-dose-only effect; inactive = no such curve, though single readings can be large or run the other way.
endpoint: Potency

compound: O=C(NC1CCNCC1)c1[nH]ncc1NC(=O)c1c(Cl)cccc1Cl
reading: 1.17 µM (active)
--
compound: C=CC(=O)Nc1cc2c(Nc3ccc(F)c(Cl)c3)ncnc2cc1C#CC(C)(C)N1CCN(C)CC1
reading: 4.79 µM (active)
--
compound: CC(=O)OCC(=O)[C@@]1(O)[C@H](C)C[C@H]2[C@@H]3C=C(C)C4=Cc5c(cnn5-c5ccccc5)C[C@]4(C)[C@@H]3[C@@H](O)C[C@@]21C
reading: 18.5 µM (active)
--
compound: Cc1cc(N2CCOCC2)cc2[nH]c(-c3c(NC[C@@H](O)c4cccc(Cl)c4)cc[nH]c3=O)nc12
reading: 3.29 µM (active)
--
compound: Nc1ccccc1NC(=O)c1ccc(CNc2nccc(-c3cccnc3)n2)cc1
reading: 2.93 µM (active)
--
compound: CCNC(=O)Nc1ccc2ncc(Nc3ccc(C)cc3)nc2n1
reading: inactive
--
compound: C=CC(=O)Nc1cccc(Oc2nc(Nc3ccc(N4CCN(C)CC4)cc3)ncc2Cl)c1
reading: 18.5 µM (active)
--
compound: CC1=C(CO)C(=O)O[C@@H]([C@@H](C)[C@H]2CC[C@H]3[C@@H]4C[C@H]5O[C@]56[C@@H](O)C=CC(=O)[C@]6(C)[C@@H]4CC[C@]23C)C1
reading: inactive
--
compound: COc1cccc2nc(-c3cccs3)nc(NN3C(=O)C=C(C)C3=O)c12
reading: 5.22 µM (active)
--
compound: CC(C)(C)c1cc(NC(=O)Nc2ccc(-c3cn4c(n3)sc3cc(OCCN5CCOCC5)ccc34)cc2)no1
reading: 20.8 µM (active)
--
compound: O=C(C=Cc1cccnc1)NCCCCC1CCN(C(=O)c2ccccc2)CC1
reading: inactive
--
compound: CCCCc1nc2cc(C=CC(=O)NO)ccc2n1CCN(CC)CC
reading: 2.33 µM (active)
--
compound: O=C(C=Cc1cccc(S(=O)(=O)Nc2ccccc2)c1)NO
reading: 19.1 µM (active)
--
compound: CN(C)Cc1c(C(=O)NCCOc2ccc(C(=O)NO)cc2)oc2ccccc12
reading: 2.61 µM (active)
--
compound: COc1cc2c(NC3CCN(C(C)C)CC3)nc(C3CCCCC3)nc2cc1OCCCN1CCCC1
reading: 9.27 µM (active)
--
compound: COc1ccc(C=Cc2cc(OC)c(OC)c(OC)c2)cc1O
reading: 0.0737 µM (active)
--
compound: CC(C)C[C@H](NC(=O)CNC(=O)c1cc(Cl)ccc1Cl)B(O)O
reading: 0.185 µM (active)
--
compound: CC=C1NC(=O)[C@H]2CSSCCC=C[C@H](CC(=O)N[C@H](C(C)C)C(=O)N2)OC(=O)[C@H](C(C)C)NC1=O
reading: inactive
--
compound: Cc1cc(Nc2cc(N3CCN(C)CC3)nc(Sc3ccc(NC(=O)C4CC4)cc3)n2)n[nH]1
reading: 5.22 µM (active)
--
compound: Nc1ccccc1NC(=O)c1ccc(CNC(=O)OCc2cccnc2)cc1
reading: 1.91 µM (active)
--
compound: COc1c(OCCCN2CCOCC2)ccc2c3n(c(=NC(=O)c4cnc(N)nc4)nc12)CCN3
reading: inactive
--
compound: COc1ccc(F)c(F)c1C(=O)c1cnc(NC2CCN(S(C)(=O)=O)CC2)nc1N
reading: 8.27 µM (active)
--
compound: O=C(Cc1ccc(-c2ccc(OCCN3CCOCC3)cc2)cn1)NCc1ccccc1
reading: 0.117 µM (active)
--
compound: CCN1CCN(Cc2ccc(-c3cc4c(N[C@H](C)c5ccccc5)ncnc4[nH]3)cc2)CC1
reading: 8.51 µM (active)
--
compound: CC=CC1=C(C(=O)O)N2C(=O)[C@H](NC(=O)[C@H](N)c3ccc(O)cc3)[C@@H]2SC1
reading: inactive
--
compound: C#Cc1cccc(Nc2ncnc3cc(OC)c(OCCCCCCC(=O)NO)cc23)c1
reading: 2.14 µM (active)
--
compound: Cc1nc2ccc(CN(C)c3ccc(C(=O)N[C@@H](CCC(=O)O)C(=O)O)s3)cc2c(=O)[nH]1
reading: inactive
--
compound: Cc1[nH]nc2ccc(-c3cncc(OC[C@@H](N)Cc4ccccc4)c3)cc12
reading: 4.27 µM (active)
--
compound: CC(NCc1ccc2c(c1)nc(NC(=O)c1ccc(-c3cn[nH]c3)s1)n2CC(C)(C)O)C(C)(C)C (configuration not stated)
reading: 1.47 µM (active)
--
compound: CNC(=O)CN1CCC(Oc2cc3c(Nc4cccc(Cl)c4F)ncnc3cc2OC)CC1
reading: inactive
--
compound: NC(=O)Nc1cc(-c2cccc(F)c2)sc1C(=O)N[C@H]1CCCNC1
reading: 2.33 µM (active)
--
compound: C[C@@]12O[C@@H](C[C@]1(O)CO)n1c3ccccc3c3c4c(c5c6ccccc6n2c5c31)CNC4=O
reading: 9.27 µM (active)
--
compound: Cc1ccc(C(=O)Nc2ccc(CN3CCN(C)CC3)c(C(F)(F)F)c2)cc1C#Cc1cnc2cccnn12
reading: 8.27 µM (active)
--
compound: COCCn1c2c([n+](Cc3cnccn3)c1C)C(=O)c1ccccc1C2=O
reading: 0.0414 µM (active)
--
compound: COC(=O)c1ccc2c(C(=Nc3ccc(N(C)C(=O)CN4CCN(C)CC4)cc3)c3ccccc3)c(O)[nH]c2c1
reading: 26.1 µM (active)
--
compound: CC[C@@]1(O)C(=O)OCc2c1cc1n(c2=O)Cc2cc3cc(O)ccc3nc2-1
reading: 0.657 µM (active)
--
compound: Cc1c(C)n(Cc2ccc(-c3ccccc3C(=O)O)cc2)c2ccc(C(=O)N[C@@H](C)c3ccc([N+](=O)[O-])cc3)cc12
reading: inactive
